Cited source: paper PMC8876412

Assay: MTT toxicity assay in non-infected cells
Format: cell-based
Conditions: human, non-infected HFF cells, non-infected HFFs
CC50 at 72 h listing for selected compounds.

- Smiles Repr: "O=C(NCCc1ccncc1)C1CCN(C(=O)c2cccn2Cc2ccc(Cl)cc2)CC1"
  CC50 at 72 h: "> 500 µM"
- Smiles Repr: "O=C(NCCc1ccncc1)C1CCN(C(=O)c2cc3ccccc3n2Cc2ccc(Cl)cc2)CC1"
  CC50 at 72 h: "> 500 µM"
- Smiles Repr: "CC(C)NC(=O)C1CCN(C(=O)c2cc3sccc3n2Cc2ccc(Cl)cc2)CC1"
  CC50 at 72 h: "> 200 µM"
- Smiles Repr: "O=C(NCCc1ccncc1)C1CCN(C(=O)c2cc3sccc3n2Cc2ccc(Cl)cc2)CC1"
  CC50 at 72 h: "> 500 µM"
